For each record, write down the corresponding pIC50.
# Tgt: JAK2 (Homo sapiens (Human), UniProt O60674)
# Sequence (O60674 849-1124): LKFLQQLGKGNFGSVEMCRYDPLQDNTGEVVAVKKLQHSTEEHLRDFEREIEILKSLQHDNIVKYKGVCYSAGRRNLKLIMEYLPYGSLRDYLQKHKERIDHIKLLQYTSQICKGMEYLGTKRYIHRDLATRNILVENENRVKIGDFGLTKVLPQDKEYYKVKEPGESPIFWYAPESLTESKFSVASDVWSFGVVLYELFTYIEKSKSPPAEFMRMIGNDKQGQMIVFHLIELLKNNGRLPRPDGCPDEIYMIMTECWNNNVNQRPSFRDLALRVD
# Test Details: Jak biochemical HTRF assay, JAK2
# Study Conditions: HTRF biochemical assay, recombinant GST-tagged catalytic domain; read-out: JAK2 IC50
Scale for pIC50: -log10 of concentration given in mol/L; no unit attached.

The compound identified as "N#C[C@H]1CCCC[C@@H]1n1nc(Nc2cccc(Cn3ccnc3)c2)c2c(=O)[nH]ccc21" registered its pIC50 at 8.66

Value of pIC50 reported for the compound "CC(C)(C)S(=O)(=O)c1ccc(Nc2nn([C@H]3CCC[C@@H]3C#N)c3cc[nH]c(=O)c23)cc1" is 9.44

pIC50 in this record for N#C[C@H]1CCCC[C@@H]1n1nc(Nc2ccc(C(O)C(F)(F)F)cc2)c2c(=O)[nH]ccc21 (single isomer, unassigned) [Example 3-9] : 9.27

Lab note: measured pIC50 of "CC(C)(C)OC(=O)C(C)(C)N1Cc2cc(Nc3nn([C@H]4CCCC[C@@H]4C#N)c4cc[nH]c(=O)c34)ccc2S1(=O)=O" was 9.11

Value of pIC50 reported for the compound CC(O)(c1ccc(Nc2nn([C@H]3CCC[C@@H]3C#N)c3cc[nH]c(=O)c23)cc1)C(F)(F)F (single isomer, unassigned) [Example 3-138] is 9.18

Noted for N#C[C@H]1CCCC[C@@H]1n1nc(Nc2ccc(C(O)C(F)F)cc2)c2c(=O)[nH]ccc21 (some centres unmarked) [Example 3-70] : its pIC50 reads 9.21

"N#C[C@H]1CCCC[C@@H]1n1nc(Nc2ccc3c(c2)CNCC3)c2c(=O)[nH]ccc21" yielded pIC50 of 9.06

Noted for "N#C[C@H]1CCC[C@@H]1n1nc(Nc2ccc3c(c2)CN(CC(F)(F)F)C3=O)c2c(=O)[nH]ccc21" : its pIC50 reads 9.36

Entry "Cn1ccc(NC(=O)Cc2cccc(Nc3nn([C@@H]4CCCC[C@H]4C#N)c4cc[nH]c(=O)c34)c2)n1" , pIC50 reported as 7.52

The compound "N#C[C@H]1CCCC[C@@H]1n1nc(Nc2ccc3c(c2)CCNC3)c2c(=O)[nH]ccc21" showed pIC50 equal to 8.59

Record "N#C[C@H]1CCCC[C@@H]1n1nc(Nc2ccc(Cn3ccnn3)cc2)c2c(=O)[nH]ccc21" , field pIC50: 9.47

For reference, reported pIC50 for "N#C[C@H]1CCCC[C@@H]1n1nc(Nc2ccc3c(c2)CN(C2CCSCC2)C3=O)c2c(=O)[nH]ccc21" stands at 9.29

# compound CC1c2cc(Nc3nn([C@H]4CCCC[C@@H]4C#N)c4cc[nH]c(=O)c34)ccc2S(=O)(=O)N1C (single isomer, unassigned) [Example 3-126] ; its pIC50 = 8.60

The measured pIC50 associated with "Cc1cc(Nc2nn([C@H]3CCCC[C@@H]3C#N)c3cc[nH]c(=O)c23)ccc1-c1cnn(CCC#N)c1" reads 8.64
